assay explanation: SDT Cancer Cell Toxicity qHTS against the NCATS CANVASS Library (AID 1347365); note: nearly all actives have a fitted effect of over 60% in size
measurement conditions: SDT dog glioma viability, ATP luminescence, 72 h; series mostly up to 46.1 µM
Records with an inconclusive call do not appear. Active and inactive are the calls of the source. Calls come from the whole dose curve; as a rule, active = well fitted cell-killing curve with a large enough effect; inconclusive = small, poorly fitted or top-dose-only effect; inactive = flat fitted curve, though single readings scatter. Square brackets hold non-standard residues; d marks the D form. Peptide text beside a SMILES is read from it. ξ: configuration not given here. ξL = CC(C)CC(N)C(=O)O
Give one outcome, nothing more. List: active, inactive

Solved entries:
[Q] Tell me the assay call for COc1cc2c(cc1OC)[C@@H](c1ccc3c(c1)OCO3)C(C)C(C)C2=O (stereo partly specified) please.
[A] inactive

[Q] Tell me the assay call for `C=C[C@]1(C)CC[C@@H]([C@H](C)C(=O)CC=C(C)C)O1` please.
[A] inactive

[Q] Tell me the assay call for `CC(C)=CCC[C@]12c3cc4c(cc3CC[C@@]1(C)[C@H](C)CC[C@@H]2O)[nH]c1ccccc14` please.
[A] inactive

[Q] Tell me the assay call for CCC(C)=C1OC(=O)[C@H](C)[C@H](O)[C@H](Cc2cccnc2)NC(=O)C(NC(=O)c2ncccc2O)C(C)OC1=O (stereo partly specified) please.
[A] inactive

[Q] Tell me the assay call for `CN1CC[C@]2(c3cccc4c3N[C@H]3N(C)CC[C@@]43[C@]34CCN(C)[C@H]3Nc3ccccc34)c3ccccc3N[C@H]12` please.
[A] active

[Q] Tell me the assay call for `COc1cc2c(c(O)c1O)C(=O)c1c(coc1C)C2=O` please.
[A] active

[Q] Tell me the assay call for `COC(=O)[C@@]1(C)CCC[C@]2(C)c3cc(OC)ccc3CC[C@@H]12` please.
[A] inactive

[Q] Tell me the assay call for `CC[C@@H]1C[C@@]2(CC)OC(=O)[C@@]3(CC)[C@H](CC)[C@@H]1[C@@H]23` please.
[A] inactive

[Q] Tell me the assay call for CO[C@@H]1[C@H](O)[C@@H](C)O[C@@H](OC[C@@H]2C(C)OC(=O)/C=C/[C@H](C)C(O[C@@H]3O[C@H](C)CC4(OC(=O)O[C@@H]4C)C3O)[C@@H](C)CC(C)C(=O)/C=C/[C@H]3OC23)[C@@H]1OC (stereo partly specified) please.
[A] active

[Q] Tell me the assay call for CC[C@@H](C)[C@H]1NC(=O)C(CC(C)C)NC(=O)[C@@H](CC(C)C)NC(=O)[C@H](Cc2c[nH]c3ccccc23)NC(=O)CNC(=O)[C@@H](CC(N)=O)NC1=O (stereo partly drawn) (cyclo(GW[dL][ξL][dI][dN])) please.
[A] active

---
[Q] Tell me the assay call for `C=C[C@@]1(C)CC[C@@H]([C@H](C)C(C)=O)O1` please.
[A] inactive

[Q] Tell me the assay call for CC1(C)CC[C@]2(CO)CC[C@]3(C)C(=CCC4[C@@]5(C)CC[C@H](O)C(C)(C)C5CC[C@]43C)C2C1 (stereo partly specified) please.
[A] inactive

[Q] Tell me the assay call for `CN1C(=O)C(=O)N2C(=C[C@]3(c4c[nH]c5ccccc45)c4ccccc4N[C@H]23)C1=O` please.
[A] inactive

[Q] Tell me the assay call for `CO[C@@H](C[C@@H](C)[C@@H](O)/C=C/C=C/CNC(=O)C(C)(C)[C@H](O)\C(C)=C/C=C\C=C\Cc1cnco1)[C@]1(O)[C@@H](C)C(=O)N(C)[C@@]12COC2=O` please.
[A] inactive

[Q] Tell me the assay call for `CC(C)[C@]12CC[C@@]3(C)[C@H](C)CC[C@H](O)[C@@]3(CC1)c1cc3c(cc12)[nH]c1ccccc13` please.
[A] inactive

[Q] Tell me the assay call for `COc1c(O)cc(O)c2c(=O)cc(-c3ccccc3)oc12` please.
[A] inactive

Reference source: PubChem BioAssay (NCATS)
